Can you tell me % Analyte Removed Fe for the items I'm about to list?
Test Description: binding efficiency test, spiked water
Study Conditions: 0.50 g in 30.0 ml spike solution, approximately 1 mg/l of each element, 18 hrs, room temperature
One number for each entry, in %.

// below: answered compounds
{"Compound": "[O]=[Ti]=[O] [TiO2]", "% Analyte Removed Fe, %": 49}
{"Compound": "O.O.O.O.O=C([O-])[O-].O=C([O-])[O-].O=C([O-])[O-].[La+3].[La+3] [La2(CO3)3•4H2O, reference compound]", "% Analyte Removed Fe, %": 56}
{"Compound": "[La+3].[La+3].[O-2].[O-2].[O-2] [La2O3]", "% Analyte Removed Fe, %": 92}

Would you mind listing % Analyte Removed Fe for each of the following compounds?
1. O=C([O-])[O-].[La+3].[La+3].[O-2].[O-2] [Compound B, anhydrous lanthanum oxycarbonate]
2. O=C([O-])[O-].[La+3].[OH-] [A, lanthanum carbonate hydroxide]

Reply |
100
58

Please go through the list and note % Analyte Removed Fe for each compound.
1. [O]=[La][Cl] [LaOCl, lanthanum oxychloride]
2. O=C([O-])[O-].O=C([O-])[O-].[Ti+4] [Ti(CO3)2, Ti carbonate]

Reply |
[100, 100]

====

Test Description: binding efficiency test, spiked water
Study Conditions: 0.50 g in 30.0 ml spike solution, approximately 1 mg/l of each element, 18 hrs, room temperature
Parameter: % Analyte Removed Mn

Please review the entries below; each comes with its answer.
{"Molecule": "O=C([O-])[O-].O=C([O-])[O-].[Ti+4] [Ti(CO3)2, Ti carbonate]", "% Analyte Removed Mn": "100%"}
{"Molecule": "[O]=[Ti]=[O]", "% Analyte Removed Mn": "1%"}

Let us move to another entry and its % Analyte Removed Mn.
Ask | Need % Analyte Removed Mn, item [La+3].[La+3].[O-2].[O-2].[O-2]
Reply | 94%

====

Kindly supply the reported % Analyte Removed Be values for the records listed here.
Test Description: binding efficiency test, spiked water
Study Conditions: 0.50 g in 30.0 ml spike solution, approximately 1 mg/l of each element, 18 hrs, room temperature
Protocol: Tests were run to determine the binding efficiency of eight different compounds for twenty-four different elements. […] The compounds given in Table 6 were added to water and a spike and were vigorously shaken at room temperature for 18 hrs. The samples were filtered and the filtrate analyzed for a suite of elements including Sb, As, Be, Cd, Ca, Cr, Co, Cu, Fe, Pb, Mg, Mn, Mo, Ni, Se, Tl, Ti, V, Zn, Al, Ba, B, Ag, and P. […]
Give bare numbers, in %.

{"Compound": "[O]=[La][Cl] [LaOCl, lanthanum oxychloride]", "% Analyte Removed Be, %": 89}
{"Compound": "O.O.O.O.O=C([O-])[O-].O=C([O-])[O-].O=C([O-])[O-].[La+3].[La+3] [La2(CO3)3•4H2O, reference compound]", "% Analyte Removed Be, %": 41}
{"Compound": "[La+3].[La+3].[O-2].[O-2].[O-2] [La2O3]", "% Analyte Removed Be, %": 97}

For each of the compounds below, state % Analyte Removed Be.
1. [O]=[Ti]=[O] [TiO2]
2. O=C([O-])[O-].[La+3].[La+3].[O-2].[O-2] [Compound B, anhydrous lanthanum oxycarbonate]
3. O=C([O-])[O-].O=C([O-])[O-].[Ti+4] [Ti(CO3)2, Ti carbonate]

Reply |
1. 8
2. 100
3. 100

Ask | Form field: reported % Analyte Removed Be of O=C([O-])[O-].[La+3].[OH-] [A, lanthanum carbonate hydroxide]
Reply | 53
